Data origin, for the record: PubChem BioAssay (NCI)

Here the recorded TGI is given for each entry.
Tested on: T-47D breast
PROTOCOL_TEXT: NCI tumour cell line growth inhibition, 48 h
MEASURED_ENDPOINT: TGI

[
  {
    "COMPOUND": "CC(=O)Oc1ccc2c(c1)Oc1cc(C(C)=O)ccc1C21OC(=O)c2ccccc21 (centres undefined)",
    "MEASURED_ENDPOINT": "TGI",
    "REPORTED_VALUE": "> 100 µM"
  },
  {
    "COMPOUND": "Cc1ccc2c(c1)C(=O)/C(=C\\c1ccccc1)CCS2(=O)=O",
    "MEASURED_ENDPOINT": "TGI",
    "REPORTED_VALUE": "49.6 µM"
  },
  {
    "COMPOUND": "CCSc1nc(N)c2c(-c3ccc(OC)c(OC)c3)c3c(nc2n1)CCCC3",
    "MEASURED_ENDPOINT": "TGI",
    "REPORTED_VALUE": "> 100 µM"
  },
  {
    "COMPOUND": "Cn1c2ccccc2c2c(-c3ccccc3)[n+]3ccccc3nc21",
    "MEASURED_ENDPOINT": "TGI",
    "REPORTED_VALUE": "> 100 µM"
  },
  {
    "COMPOUND": "Cc1ccc(S(=O)(=O)N2CCN(S(=O)(=O)c3ccc(C)cc3)Cc3ccccc3C2)cc1",
    "MEASURED_ENDPOINT": "TGI",
    "REPORTED_VALUE": "> 100 µM"
  },
  {
    "COMPOUND": "CC[C@H](C)[C@H]1NC(=O)[C@@H](N[C@](C)(O)[C@@H](N)CC(C)C)[C@@H](C)OC(=O)[C@H](Cc2ccc(OC)cc2)N(C)C(=O)[C@@H]2CCCN2C(=O)[C@H](CC(C)C)NC(=O)[C@@H](C)C(=O)[C@H](C(C)C)OC(=O)C[C@@H]1O",
    "MEASURED_ENDPOINT": "TGI",
    "REPORTED_VALUE": "0.301 µM"
  },
  {
    "COMPOUND": "COc1cc(N=CN(C)C)c2ncccc2c1",
    "MEASURED_ENDPOINT": "TGI",
    "REPORTED_VALUE": "> 100 µM"
  },
  {
    "COMPOUND": "O=C1/C(=C/C=C/c2ccccc2)N=C(c2ccccc2)N1C1Nc2cc3c(cc2S1)NC(N1C(=O)/C(=C/C=C/c2ccccc2)N=C1c1ccccc1)S3 (centres undefined)",
    "MEASURED_ENDPOINT": "TGI",
    "REPORTED_VALUE": "> 100 µM"
  },
  {
    "COMPOUND": "O=C(Nc1cc(C(=O)Nc2cccc(S(=O)(=O)O)c2)cc(C(=O)Nc2cccc(S(=O)(=O)O)c2)c1)c1cccc(C(=O)Nc2cc(C(=O)Nc3cccc(S(=O)(=O)O)c3)cc(C(=O)Nc3cccc(S(=O)(=O)O)c3)c2)c1",
    "MEASURED_ENDPOINT": "TGI",
    "REPORTED_VALUE": "> 100 µM"
  },
  {
    "COMPOUND": "O=C(CN1CCN(c2ncnc3ccccc23)CC1)Nc1ccc(Cl)cc1C(=O)c1ccccc1Cl",
    "MEASURED_ENDPOINT": "TGI",
    "REPORTED_VALUE": "3.25 µM"
  },
  {
    "COMPOUND": "CC(C)(C)NC(C1=CC(C)(C)c2ccccc2C1=O)c1ccccc1 (centres undefined)",
    "MEASURED_ENDPOINT": "TGI",
    "REPORTED_VALUE": "2.55 µM"
  },
  {
    "COMPOUND": "COc1cc(O)cc(/C=C/c2ccc(O)cc2)c1",
    "MEASURED_ENDPOINT": "TGI",
    "REPORTED_VALUE": "> 100 µM"
  },
  {
    "COMPOUND": "CN(C)c1ccc(N2Cc3ccccc3OC3=C2C(=O)c2c(O)ccc(O)c2C3=O)cn1",
    "MEASURED_ENDPOINT": "TGI",
    "REPORTED_VALUE": "1.27 µM"
  },
  {
    "COMPOUND": "COc1ccc(N(C)S(=O)(=O)c2ccccc2)cc1",
    "MEASURED_ENDPOINT": "TGI",
    "REPORTED_VALUE": "> 100 µM"
  }
]
